study_target: PKB (Homo sapiens, UniProt P31749)
Construct: His; HA; made in house
Sequence (P31749 whole entry, species assumed): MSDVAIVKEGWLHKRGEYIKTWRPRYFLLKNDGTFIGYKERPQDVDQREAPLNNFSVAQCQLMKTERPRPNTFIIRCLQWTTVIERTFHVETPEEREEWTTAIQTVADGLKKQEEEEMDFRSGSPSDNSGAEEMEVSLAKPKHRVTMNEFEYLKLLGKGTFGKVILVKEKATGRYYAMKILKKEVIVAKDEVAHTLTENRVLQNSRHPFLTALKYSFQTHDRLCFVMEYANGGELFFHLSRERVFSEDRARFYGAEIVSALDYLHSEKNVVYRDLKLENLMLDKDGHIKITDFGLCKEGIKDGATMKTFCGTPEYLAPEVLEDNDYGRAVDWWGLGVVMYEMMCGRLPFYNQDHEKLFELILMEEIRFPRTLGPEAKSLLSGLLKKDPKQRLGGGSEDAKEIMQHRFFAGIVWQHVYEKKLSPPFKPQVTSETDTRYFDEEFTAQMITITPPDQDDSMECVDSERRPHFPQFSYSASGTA
experiment_notes: PKB in vitro kinase activity assay (soluble His-HA-PKB / SPA bead screening)
Assay type: biochemical
condition_details: 1 μM compound concentration, Assay 1
Where no end group is shown, it is not given here. Side-chain parts run from the residue outwards. [ ]: non-standard residue; d: D form. The star is where a group is joined. X1 = 5‑aminoethylsulfonamide isoquinoline, O=S(=O)(NCCN*)c1cccc2cnccc12; hLeu = CC(C)CC[C@H](N)C(=O)O; Orn = NCCC[C@H](N)C(=O)O; Dab = NCC[C@H](N)C(=O)O; Nva = CCC[C@H](N)C(=O)O; Abu = CC[C@H](N)C(=O)O; βAla = NCCC(=O)O
quantity_kind: PKB-kinase (spa) Assay 1, % inhibition of kinase activity (%)

(A) 60020-47: Arg-Pro-Arg-Orn-Glu(Gly-5-aminoethylsulfonamide isoquinoline)-Nva-Phe (RPR[Orn]E([Gly-X1])[Nva]F)
(B) 60020-82: Arg-Pro-Arg-Abu-Glu(bAla-5-aminoethylsulfonamide isoquinoline)-Dab-Hol (RPR[Abu]E([βAla-X1])[Dab][hLeu])
(C) 60020-10: Arg-Pro-Arg-Orn-Glu(5-aminoethylsulfonamide isoquinoline)-Dab-Hol (RPR[Orn]E(X1)[Dab][hLeu])
IN: Sort the items above by PKB-kinase (spa) Assay 1, % inhibition of kinase activity, starting with the smallest value. Reply with the item labels sorted in the order that was asked for.
OUT: B, A, C
